- TARGET_OR_SYSTEM: Fes (UniProt P07332)
- Sequence (P07332 whole entry, looked up): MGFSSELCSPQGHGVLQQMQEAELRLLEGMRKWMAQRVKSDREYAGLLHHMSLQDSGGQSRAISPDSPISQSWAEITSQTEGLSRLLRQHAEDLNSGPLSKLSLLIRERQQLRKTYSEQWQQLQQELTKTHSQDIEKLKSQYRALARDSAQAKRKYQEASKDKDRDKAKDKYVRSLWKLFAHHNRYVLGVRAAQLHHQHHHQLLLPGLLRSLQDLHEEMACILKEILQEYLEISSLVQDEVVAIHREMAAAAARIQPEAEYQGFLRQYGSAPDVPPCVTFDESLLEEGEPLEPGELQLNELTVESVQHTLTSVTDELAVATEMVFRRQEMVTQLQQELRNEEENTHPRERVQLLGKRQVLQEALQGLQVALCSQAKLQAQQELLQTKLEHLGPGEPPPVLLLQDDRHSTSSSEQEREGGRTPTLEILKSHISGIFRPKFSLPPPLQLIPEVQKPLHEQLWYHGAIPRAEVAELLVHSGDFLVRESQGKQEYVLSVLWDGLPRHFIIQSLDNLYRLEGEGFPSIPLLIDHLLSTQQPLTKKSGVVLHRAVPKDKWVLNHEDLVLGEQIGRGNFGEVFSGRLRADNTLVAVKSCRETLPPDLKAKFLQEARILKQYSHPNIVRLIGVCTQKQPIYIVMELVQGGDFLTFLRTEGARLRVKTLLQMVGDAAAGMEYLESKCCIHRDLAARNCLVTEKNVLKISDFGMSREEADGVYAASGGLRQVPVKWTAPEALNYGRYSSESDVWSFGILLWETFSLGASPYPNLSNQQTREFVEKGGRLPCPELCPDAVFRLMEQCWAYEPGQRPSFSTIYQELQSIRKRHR
- ASSAY_PROTOCOL: phosphorylation enrichment, bacterial display (enrichment ratio); higher = better substrate or ligand; peptides without Tyr show the background;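 note: 11-residue human phosphosite peptides and single-mutation variants displayed on the E. coli surface, counted by deep sequencing, each peptide's frequency after selection divided by its frequency in the unselected input library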;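 note: frequency after pTyr selection over input frequency; kinase dosed for 20-30% of maximal phosphorylation in three min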
REPORTED_ENDPOINT: phosphorylation enrichment
Numbers only.

Known phosphorylation enrichment results, listed for orientation:
- SEQUENCE_INPUT: "GEFFRYLAEVA [YWHAG_Y133_D129E_YF]"
  phosphorylation enrichment: 1.17
- SEQUENCE_INPUT: "RLRAAYNLVKR [PFKM_Y103]"
  phosphorylation enrichment: 1.04
- SEQUENCE_INPUT: "EVKEAYMGNVL [ACAT1_Y90]"
  phosphorylation enrichment: 0.848
- SEQUENCE_INPUT: "SFSGEYGSGGG [ZG16_Y30_G32S_YF]"
  phosphorylation enrichment: 0.658
- SEQUENCE_INPUT: "QTWKTYVRHQQ [SFI1_Y164_Q167H]"
  phosphorylation enrichment: 1.29

Would you mind giving phosphorylation enrichment for every sequence in the list below?
1. WVYNHYRWIIW [BRCA2_Y2624]
2. TFGVAYRAKDK [CDK11B_Y453_V452A_YF]

Result:
1: 1.11; 2: 1.03
